System: Salmonella typhimurium TA100
assay-method-text: Preincubation Ames test, strain TA100
Type: cell-based
run-conditions: strain TA100; 30 vs 60 min
property-name: Effectiveness of time of preincubation for most effective S9 (min = 30min)
Provide only the numeric value, understood in min = 30min.

Effectiveness of time of preincubation for most effective S9 for CC(C)N(CC(O)COc1cccc2ccccc12)N=O (stereo not drawn) [NDSRI-17] ? 60

Continuing:
Effectiveness of time of preincubation for most effective S9 for CN(CCC=C1c2ccccc2CCc2ccccc21)N=O [NDSRI-18] ? 60

Also need CN1CCN(N=O)CC1 [SM-4, 1-Methyl-4-nitrosopiperazine] , thanks. 60

---

Tested on: Salmonella typhimurium TA1535
assay-method-text: Preincubation Ames test, strain TA1535
Assay type: cell-based
run-conditions: strain TA1535; 30 vs 60 min
property-name: Effectiveness of time of preincubation for most effective S9 (min = 30min)
Provide only the numeric value, understood in min = 30min.

Effectiveness of time of preincubation for most effective S9 for CN(CCOC(c1ccccc1)c1ccccc1)N=O [NDSRI-16] ? 60

Continuing:
Effectiveness of time of preincubation for most effective S9 for CN1CCN(N=O)CC1 [SM-4, 1-Methyl-4-nitrosopiperazine] ? 60

Also need CC(C)N(N=O)C(C)C [SM-5, N,N-Di(propan-2-yl)nitrous amide] , thanks. 60

---

As shown below, each of these compounds has a reported Effectiveness of time of preincubation for most effective S9 value.
Test system: Salmonella typhimurium TA1535
assay-method-text: Preincubation Ames test, strain TA1535
Format: cell-based
run-conditions: strain TA1535; 30 vs 60 min
Provide only the numeric value, understood in min = 30min.

Examples from the recorded data:
Effectiveness of time of preincubation for most effective S9 for CC(C)N(CC(O)COc1cccc2ccccc12)N=O (centres unmarked) ? 60

Also need `O=NN1CCN(C2CCCC2)CC1` , thanks. 60

Continuing:
Effectiveness of time of preincubation for most effective S9 for `C[C@H]1CN(N=O)CCc2ccc(Cl)cc21` ? 60

Also need CCN(N=O)C(C)C [SM-3, N-Ethyl-N-propan-2-ylnitrous amide] , thanks. 60

Also need `CN(CCC=C1c2ccccc2CCc2ccccc21)N=O` , thanks. 60

---

As shown below, each of these compounds has a reported Effectiveness of time of preincubation for most effective S9 value.
System: E. coli WP2 uvrA (pKM101)
assay-method-text: Preincubation Ames test, strain WP2 uvrA
Assay type: cell-based, Escherichia coli
run-conditions: strain WP2 uvrA (pKM101); 30 vs 60 min

Examples from the recorded data:
Effectiveness of time of preincubation for most effective S9 for `CN(CCOC(c1ccccc1)c1ccccc1)N=O` ? 60min >30min

Also need `C[C@H]1CN(N=O)CCc2ccc(Cl)cc21` , thanks. 60min = 30min

Also need CN(N=O)C1CCC(c2ccc(Cl)c(Cl)c2)c2ccccc21 (centres unmarked) , thanks. 30min >60min

Also need CN(CCC(Oc1ccc(C(F)(F)F)cc1)c1ccccc1)N=O (centres unmarked) , thanks. 30min >60min

API: the following record is the query input.
Effectiveness of time of preincubation for most effective S9 for CCN(N=O)C(C)C [SM-3, N-Ethyl-N-propan-2-ylnitrous amide] ? 60min = 30min

---

Tested on: Salmonella typhimurium TA100
assay-method-text: Preincubation Ames test, strain TA100
Type: cell-based
run-conditions: strain TA100; 30 vs 60 min
property-name: Effectiveness of time of preincubation for most effective S9 (min = 30min)
Provide only the numeric value, understood in min = 30min.

Examples from the recorded data:
Effectiveness of time of preincubation for most effective S9 for `CN(CCOC(c1ccccc1)c1ccccc1)N=O` ? 60

Also need `O=NN1CC2CC(C1)c1cc3nccnc3cc12` , thanks. 60

API: the following record is the query input.
Effectiveness of time of preincubation for most effective S9 for `C[C@H]1CN(N=O)CCc2ccc(Cl)cc21` ? 60
